test system: COLO 205; experiment: NCI tumour cell line growth inhibition, 48 h
Activity calls are given as the source filed them. No stated cut-off is given here; in the data, active = GI50 up to about 1.1 µM and inactive = higher.
Assay Endpoint: GI50

Past entries and their recorded results:
{"Compound": "CC(=O)Oc1cc(C(F)(F)F)ccc1C(=O)OC1(C)OC(=O)c2ccc(C(F)(F)F)cc2O1 (stereo not drawn)", "GI50": "> 100 µM (inactive)"}
{"Compound": "CC(C)C(Nc1c2ccccc2nc2ccccc12)C(=O)O (stereo not drawn)", "GI50": "70.1 µM (inactive)"}
{"Compound": "COC(=O)/C=C/N1CC1", "GI50": "2.19 µM (inactive)"}
{"Compound": "COc1ccc(/C=C\\c2cc(OC)c(OC)c(OC)c2)cc1OCC(=O)O", "GI50": "> 100 µM (inactive)"}
{"Compound": "NC(CSc1nc2ccccn2c1[N+](=O)[O-])C(=O)O (stereo not drawn)", "GI50": "> 100 µM (inactive)"}

Field GI50 (entry O=c1[nH]c(C2CCCCC2)nc2cc(Cl)ccc12 ) reads > 100 µM (inactive)

Summary for this compound, CN(C)c1ccc(/C=C2\N=C(NNc3ccccc3)NC2=O)cc1 : GI50 is 15.6 µM (inactive)

For O=c1[nH]c2ccccc2n1CCCN1CCC(n2c(=O)[nH]c3cc(Cl)ccc32)CC1 [DOMPERIDONE] the compound record lists GI50 as 12.7 µM (inactive)

Just for reference, ChEMBL document CHEMBL1201862 is where these values come from.
